- experimental-target: STING AQ (His-TVMV-S-hSTING(155-341)-G230A-R293Q) (Homo sapiens, UniProt Q86WV6, G230A/H232R/R293Q)
- Construct: STING AQ: His-TVMV-S-hSTING(155-341)-G230A-R293Q
- Sequence (Q86WV6 with tags, fused parts or gaps G230A/H232R/R293Q): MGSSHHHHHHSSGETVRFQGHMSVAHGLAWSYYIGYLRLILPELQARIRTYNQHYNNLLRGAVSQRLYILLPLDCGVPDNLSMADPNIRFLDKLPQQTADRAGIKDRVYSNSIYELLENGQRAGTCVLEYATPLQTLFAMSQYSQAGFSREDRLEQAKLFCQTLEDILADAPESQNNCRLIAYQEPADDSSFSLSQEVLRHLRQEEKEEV
- procedure-summary: STING HTRF binding assay (time resolved FRET competition), STING AQ
- condition-parameters: 20 nM His-tagged STING AQ cytoplasmic domain, 40 nM fluorescein-labeled cGAMP analog probe, one hour; read-out: HTRF Binding Assays IC50 AQ
measure: IC50 (nM)
Give bare numbers, in nM.

O=[N+]([O-])c1cccc2c1nnn2[C@@H]1O[C@@H]2COP(=O)(S)O[C@H]3[C@@H](F)[C@H](n4cnc5c4ncn4ccnc54)O[C@@H]3COP(=O)(S)O[C@@H]1[C@@H]2O (single isomer, unassigned) [Example 15-1] = 10
Nc1ncnc2c1ncn2[C@@H]1O[C@@H]2COP(=O)(S)O[C@@H]3[C@H](O)[C@@H](COP(=O)(S)O[C@H]2[C@H]1F)O[C@H]3n1nnc2c(C(F)(F)F)cccc21 (single isomer, unassigned) [Example 9-1] = 4
Nc1ncnc2c1ncn2[C@@H]1O[C@@H]2COP(=O)(S)O[C@@H]3[C@H](F)[C@@H](COP(=O)(S)O[C@H]2[C@H]1F)O[C@H]3n1nnc2c([N+](=O)[O-])cccc21 (single isomer, unassigned) [Example 11-4] = 20

Continue with the next molecule.
Measured IC50 of Nc1ncnc2c1ncn2[C@@H]1O[C@@H]2COP(=O)(S)O[C@@H]3[C@H](O)[C@@H](COP(=O)(O)O[C@H]2[C@H]1F)O[C@H]3n1nnc2c([N+](=O)[O-])cccc21 (single isomer, unassigned) [Example 5-1] : 10
